// reported Neutralization IC50 (RSV subtype A) for each item listed
assayed target: RSV F on RSV subtype A virus (RSV-A2) (Respiratory Syncytial Virus, subtype A, …, UniProt P03420 26-574)
experiment description: cell-based or functional assay
Supply the numeric figure in µg/mL, leaving out any unit text.

According to the records, this binder ADI-41834 (antibody, V domains shown) VH: EVQLLESGGRLVQPGRSLRLSCAASGFTVSGSYMSWVRQAPGKGLEWVSVIYIDGGTKYADSVKGRFTISRDNSKNTVYLQMNSLRAEDTAVYYCARDSSLWYRGGDYWGQGTLVTVSS VL: DIQMTQSPSSLSASVGDRVTITCQANHDISNYLNWYQQKPGKAPKLLIYDASILEAGVPSRFSGSGSGTHFTFTISSLQPEDIATYYCQQFDFRALTFGGGTKVEIK displays Neutralization IC50 (RSV subtype A) of 0.07

According to the records, this binder ADI-41833 (antibody, V domains shown) VH: EVQLLESGGGLVQPGGSLRLSCAASRFTFSTYAMSWVRQAPGKGLEWVSSISGSGDKTFYTDSVKGRFTISRDNSKNTLYLQMNSLRAEDTAVYYCARESYYELWTGTYPGWELDYWGQGTLVTVSS VL: DIQLTQSPSSLSASVGDRVTITCRASQDISNYLAWYQQKPGKPPKLLIYAASILESGAPSRFSGSGSGTDFTLTISSLQPEDVGTYYCQKSNSAPRPFGQGTKVEIK displays Neutralization IC50 (RSV subtype A) of 0.02
